ASSAY_SYSTEM: human IBAT (Homo sapiens, UniProt Q12908)
Construct: expressed in transfected cells; host or cells: Baby hamster kidney (BHK) cells, clone H14
Sequence (Q12908 1-348): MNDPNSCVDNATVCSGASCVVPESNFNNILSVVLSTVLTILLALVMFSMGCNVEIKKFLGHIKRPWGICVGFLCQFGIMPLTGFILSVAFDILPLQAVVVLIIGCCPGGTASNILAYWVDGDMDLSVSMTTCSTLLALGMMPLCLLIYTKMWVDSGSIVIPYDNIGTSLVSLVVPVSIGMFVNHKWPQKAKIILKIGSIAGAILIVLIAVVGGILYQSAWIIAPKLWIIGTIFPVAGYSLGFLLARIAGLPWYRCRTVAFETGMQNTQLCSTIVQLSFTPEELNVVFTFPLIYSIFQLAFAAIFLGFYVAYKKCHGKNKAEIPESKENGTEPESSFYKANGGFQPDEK
METHOD_SUMMARY: In vitro assay of IBAT-mediated uptake of [14C]-taurocholate (TC) in H14 cells
Type: cell-based
EXPERIMENTAL_PARAMETERS: H14 cells, Table 5; read-out: IC50 uM (In vitro Taurocholate Cell Uptake)
Description: In Vitro Assay of Compounds that Inhibit IBAT-Mediated Uptake of [^14C]-Taurocholate (TC) in H14 Cells Baby hamster kidney cells (BHK) transfected with the cDNA of human IBAT (H14 cells) are seeded at 60,000 cells/well in 96 well Top-Count tissue culture plates for assays run within in 24 hours of seeding, 30,000 cells/well for assays run within 48 hours, and 10,000 cells/well for assays run within 72 hours. […]
ASSAY_METRIC: IC50 (µM)

CCCC[C@]1(CC)CS(=O)(=O)c2ccccc2[C@H](c2ccccc2)[C@@H]1O; 2
CCCC[C@]1(CC)CS(=O)(=O)c2cc(OC)ccc2[C@@H](c2ccccc2)[C@H]1O; 0.1
O=S1(=O)CC2(CCCCC2)[C@@H](O)[C@H](c2ccccc2)c2ccccc21 (relative stereo); 70
CCCC[C@]1(CC)CS(=O)(=O)c2ccccc2[C@@H](c2ccccc2)C1=O (relative stereo); 40
CCCCCCNc1ccc2c(c1)[C@@H](c1ccccc1)[C@@H](O)[C@](CC)(CCCC)CS2(=O)=O; 2

I: CCCC[C@]1(CC)CS(=O)(=O)c2ccc(OC)cc2[C@@H](c2ccccc2)[C@H]1O
II: CCCC[C@]1(CC)CS(=O)(=O)c2ccc(OC)cc2[C@H](c2ccccc2)[C@@H]1O
III: CCCC[C@]1(CC)CSc2ccccc2[C@H](c2ccccc2)[C@@H]1O
IV: CCCCC1(CC)CS(=O)(=O)c2cc(OCC)ccc2C(c2ccccc2)C1O (stereo not drawn)
Hey, quick one: sort these by IC50, top value first please. Field: ranking. Enter the labels in the order requested. III, IV, II, I

----------
Where a name gives a salt, the structure may show the parent alone.
ASSAY_METRIC: melting point

CCCCC1(CCCC)CS(=O)(=O)c2ccc(N(C)C)cc2[C@@H](c2cccc(NC(=O)Nc3cccc(C[N+]45CCN(CC4)CC5)c3)c2)[C@H]1O.[Cl-]; 246 to 248 °C
CCCCC1(CCCC)CS(=O)(=O)c2ccc(N(C)C)cc2[C@@H](c2ccc(OCCCCC[n+]3cccc4ccccc43)cc2)[C@H]1O (as salt: methanesulfonate); 136 °C

For reference, reported melting point for `CCCCC1(CCCC)CS(=O)(=O)c2ccc(N(C)C)cc2[C@@H](c2ccc(OCCCCC[N+](C)(C)CC[N+](C)(C)CC)cc2)[C@H]1O` stands at 193 to 197 °C
